# target_system: T1, human EphA4 (binding to human Ephrin A5) (Homo sapiens, UniProt P54764)
# T1 construct: made in house; not restated for the human SEAP-His protein
# T1 sequence (P54764 20-547): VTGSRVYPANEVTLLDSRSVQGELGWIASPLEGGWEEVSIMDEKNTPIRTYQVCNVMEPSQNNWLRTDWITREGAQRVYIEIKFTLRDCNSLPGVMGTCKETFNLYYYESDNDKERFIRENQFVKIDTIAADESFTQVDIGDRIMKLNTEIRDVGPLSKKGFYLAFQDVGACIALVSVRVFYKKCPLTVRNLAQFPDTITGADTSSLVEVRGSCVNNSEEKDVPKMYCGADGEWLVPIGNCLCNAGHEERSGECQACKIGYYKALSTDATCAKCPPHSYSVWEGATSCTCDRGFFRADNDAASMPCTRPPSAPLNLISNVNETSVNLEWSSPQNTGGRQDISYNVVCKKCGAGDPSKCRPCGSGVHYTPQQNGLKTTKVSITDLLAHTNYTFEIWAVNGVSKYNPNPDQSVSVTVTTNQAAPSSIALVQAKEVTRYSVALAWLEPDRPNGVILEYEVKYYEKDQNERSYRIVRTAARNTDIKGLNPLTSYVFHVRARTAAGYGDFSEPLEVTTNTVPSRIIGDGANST
# method: Human EphA4-human ligand binding inhibition ELISA of humanized antibodies (biotinylated Ephrin A5-Fc)
# protocol_conditions: biotinylated human Ephrin A5-Fc 0.7 nM
attribute_measured: pIC50
Please express pIC50 as -log10 of the molar concentration.

Briefly, pIC50 measured for 90 (antibody, V domains shown, constant regions without entry; synthetic humanized antibody light chain variable region sequence; synthetic humanized antibody heavy chain variable region sequence) VL: DIQMTQSPSSLSASVGDRVTITCRASENIYRNLAWYQQKPGKAPQLLLYAATNLADGVPSRFSGSGSGTDYTLTISSLQPEDFATYYCQHFWGTPWTFGQGTKVEIK VH: QVQLVQSGSELKKPGASVKVSCKASGYTFTDYSMHWVRQAPGQGLEWMGWINTETGEPTYADDFKGRFVFSLDTSVSTAYLQISSLKAEDTAVYYCARIPLYYYGSRYWYFDVWGQGTTVTVSS : 8.35

Input 78 (antibody, V domains shown, synthetic humanized antibody heavy chain variable region sequence; synthetic humanized antibody light chain variable region sequence) VH: QVQLVQSGSELKKPGASVKVSCKASGYTFTDYSMHWVRQAPGQGLKWMGWINTETGEPTYADDFKGRFVFSLDTSVSTAYLQISSLKAEDTAVYYCARIPLYYYGSRYWYFDVWGQGTTVTVSS VL: DIQMTQSPSSLSASVGDRVTITCRASENIYRNLAWYQQKPGKAPKLLVYAATNLADGVPSRFSGSGSGTDYTLTISSLQPEDFATYYCQHFWGTPWTFGQGTKVEIK . Output pIC50: 8.55

Sourced from patent US10428140B2
